# ASSAY_SYSTEM: human GluN1/GluN2B NMDA receptors (Homo sapiens, UniProt Q05586+Q13224)
# Sequence (Q13224 27-1484, other chains not shown): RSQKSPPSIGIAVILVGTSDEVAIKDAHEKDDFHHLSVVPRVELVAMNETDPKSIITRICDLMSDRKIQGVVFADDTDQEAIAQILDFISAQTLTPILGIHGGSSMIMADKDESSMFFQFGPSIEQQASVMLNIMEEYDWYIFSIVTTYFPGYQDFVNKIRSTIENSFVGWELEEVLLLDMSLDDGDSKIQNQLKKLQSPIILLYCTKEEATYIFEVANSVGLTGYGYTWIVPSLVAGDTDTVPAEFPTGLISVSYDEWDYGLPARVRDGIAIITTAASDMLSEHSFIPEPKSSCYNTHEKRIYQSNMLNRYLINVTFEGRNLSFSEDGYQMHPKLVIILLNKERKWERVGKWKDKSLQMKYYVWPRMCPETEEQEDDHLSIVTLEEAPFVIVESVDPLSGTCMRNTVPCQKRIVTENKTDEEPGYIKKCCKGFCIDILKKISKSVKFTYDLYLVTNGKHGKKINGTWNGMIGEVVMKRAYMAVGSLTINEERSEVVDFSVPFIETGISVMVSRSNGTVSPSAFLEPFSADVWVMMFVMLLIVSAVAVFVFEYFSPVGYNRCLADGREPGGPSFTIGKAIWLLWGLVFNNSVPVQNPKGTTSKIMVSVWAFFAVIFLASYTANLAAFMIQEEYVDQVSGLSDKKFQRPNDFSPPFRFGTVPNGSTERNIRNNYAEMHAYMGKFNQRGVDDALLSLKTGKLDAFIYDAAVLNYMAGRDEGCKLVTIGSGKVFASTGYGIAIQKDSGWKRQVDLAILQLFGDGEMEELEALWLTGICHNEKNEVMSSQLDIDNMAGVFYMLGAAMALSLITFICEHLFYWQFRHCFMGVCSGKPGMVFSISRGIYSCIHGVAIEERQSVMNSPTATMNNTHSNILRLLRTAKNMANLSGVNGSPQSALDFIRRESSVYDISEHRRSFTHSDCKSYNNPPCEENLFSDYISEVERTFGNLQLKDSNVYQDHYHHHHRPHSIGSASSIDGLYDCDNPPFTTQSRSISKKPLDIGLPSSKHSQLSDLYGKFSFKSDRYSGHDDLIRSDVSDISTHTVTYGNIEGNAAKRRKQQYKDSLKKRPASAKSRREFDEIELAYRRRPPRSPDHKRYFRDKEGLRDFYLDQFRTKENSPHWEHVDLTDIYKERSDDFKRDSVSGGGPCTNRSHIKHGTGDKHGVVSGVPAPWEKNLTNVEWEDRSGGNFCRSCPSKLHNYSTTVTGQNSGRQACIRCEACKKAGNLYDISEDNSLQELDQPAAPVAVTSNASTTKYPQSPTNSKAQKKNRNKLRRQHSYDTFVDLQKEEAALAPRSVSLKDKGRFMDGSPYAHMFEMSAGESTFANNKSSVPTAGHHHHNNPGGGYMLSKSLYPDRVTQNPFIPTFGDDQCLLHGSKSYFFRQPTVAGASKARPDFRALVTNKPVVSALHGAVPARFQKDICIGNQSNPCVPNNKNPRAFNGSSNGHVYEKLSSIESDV
# TEST_SUMMARY: Cell-based calcium flux (FLIPR) assay on cloned human GluN1/GluN2B ion channels expressed in mammalian cells
# STUDY_CONDITIONS: standard assay; glutamate ~EC40, 10 μM glycine; stable Tet-On cell line
Structures can show the parent of a compound that is named as a salt.
REPORTED_ENDPOINT: IC50 (nM)

[
  {
    "COMPOUND": "CC(C)C1CN(Cc2cncc(-c3ccc(F)c(C(F)F)c3)c2)C(=O)O1 (racemic) [Example 35]",
    "COMPARISON_SIGN": "=",
    "MEASUREMENT": 29
  },
  {
    "COMPOUND": "O=C1OCCN1Cc1cncc(-c2ccc(F)c(OC(F)F)c2)c1",
    "COMPARISON_SIGN": "=",
    "MEASUREMENT": 12
  },
  {
    "COMPOUND": "O=C1OC2(CCC2)CN1Cc1cncc(-c2ccc(F)c(OC(F)F)c2)c1",
    "COMPARISON_SIGN": "=",
    "MEASUREMENT": 59
  },
  {
    "COMPOUND": "COc1ncc(-c2ccc(F)c(OC(F)F)c2)cc1CN1CCOC1=O",
    "COMPARISON_SIGN": "=",
    "MEASUREMENT": 12
  },
  {
    "COMPOUND": "COc1ncc(-c2cccc(C(F)(F)F)c2)cc1CN1CCOC1=O",
    "COMPARISON_SIGN": "=",
    "MEASUREMENT": 53
  },
  {
    "COMPOUND": "O=C1OC2(CNC2)CN1Cc1cncc(-c2ccc(F)c(OC(F)F)c2)c1 [Example 43, Trifluoroacetate Salt]",
    "COMPARISON_SIGN": "=",
    "MEASUREMENT": 2620
  },
  {
    "COMPOUND": "Cc1ncc(-c2cccc(F)c2)cc1CN1CCCOC1=O",
    "COMPARISON_SIGN": "=",
    "MEASUREMENT": 3020
  },
  {
    "COMPOUND": "CC(F)(F)c1ncc(-c2ccc(F)c(C(F)F)c2)cc1CN1CC2(CC2)OC1=O",
    "COMPARISON_SIGN": "=",
    "MEASUREMENT": 245
  },
  {
    "COMPOUND": "Cc1ncc(-c2ccc(F)c(OC(F)F)c2)cc1CN1C(=O)OCC1C (racemic) [Example 81]",
    "COMPARISON_SIGN": "=",
    "MEASUREMENT": 79
  },
  {
    "COMPOUND": "Cc1ncc(-c2ccc(F)c(C(F)F)c2)cc1CN1CCCOC1=O",
    "COMPARISON_SIGN": "=",
    "MEASUREMENT": 27
  },
  {
    "COMPOUND": "CC(C)[C@H]1COC(=O)N1Cc1cncc(-c2ccc(F)c(C(F)F)c2)c1",
    "COMPARISON_SIGN": "=",
    "MEASUREMENT": 2600
  },
  {
    "COMPOUND": "O=C1OC(CN2CCOCC2)CN1Cc1cncc(-c2ccc(F)c(C(F)F)c2)c1 (single isomer, unassigned) [Example 40]",
    "COMPARISON_SIGN": "=",
    "MEASUREMENT": 205
  },
  {
    "COMPOUND": "O=C1OC(CN2CCOCC2)CN1Cc1cncc(-c2ccc(F)c(C(F)F)c2)c1 (single isomer, unassigned) [Example 41]",
    "COMPARISON_SIGN": "=",
    "MEASUREMENT": 751
  },
  {
    "COMPOUND": "CC1COC(=O)N1Cc1cncc(-c2ccc(F)c(OC(F)F)c2)c1 (racemic)",
    "COMPARISON_SIGN": "=",
    "MEASUREMENT": 20
  },
  {
    "COMPOUND": "CC(F)(F)c1cc(-c2cncc(CN3CCOC3=O)c2)ccc1F",
    "COMPARISON_SIGN": "=",
    "MEASUREMENT": 30
  },
  {
    "COMPOUND": "CC(F)(F)c1ncc(-c2ccc(F)c(OC(F)F)c2)cc1CN1CC2(CC2)OC1=O",
    "COMPARISON_SIGN": "=",
    "MEASUREMENT": 212
  },
  {
    "COMPOUND": "O=C1OCCN1Cc1cc(-c2ccc(F)c(C(F)F)c2)cnc1OC(F)F",
    "COMPARISON_SIGN": "=",
    "MEASUREMENT": 153
  },
  {
    "COMPOUND": "O=C1OC(CN2CCOCC2)CN1Cc1cncc(-c2ccc(F)c(OC(F)F)c2)c1 (single isomer, unassigned) [Example 18]",
    "COMPARISON_SIGN": "=",
    "MEASUREMENT": 751
  },
  {
    "COMPOUND": "O=C1OCc2ccccc2N1Cc1cncc(-c2ccc(F)c(OC(F)F)c2)c1",
    "COMPARISON_SIGN": "=",
    "MEASUREMENT": 123
  },
  {
    "COMPOUND": "O=C1OCCN1Cc1cc(-c2ccc(F)c(C(F)F)c2)cnc1C(F)F",
    "COMPARISON_SIGN": "=",
    "MEASUREMENT": 56
  },
  {
    "COMPOUND": "O=C1OCCN1Cc1cc(-c2ccc(F)c(OC(F)F)c2)cnc1OC(F)F",
    "COMPARISON_SIGN": "=",
    "MEASUREMENT": 76
  },
  {
    "COMPOUND": "C[C@H]1CN(Cc2cc(-c3ccc(F)c(C(F)F)c3)cnc2C(C)(F)F)C(=O)O1",
    "COMPARISON_SIGN": "=",
    "MEASUREMENT": 111
  },
  {
    "COMPOUND": "COc1ncc(-c2ccc(F)c(C(F)F)c2)cc1CN1C(=O)OC[C@@H]1C",
    "COMPARISON_SIGN": "=",
    "MEASUREMENT": 121
  },
  {
    "COMPOUND": "Cc1ncc(-c2ccc(F)cc2)cc1CN1CCCOC1=O",
    "COMPARISON_SIGN": ">",
    "MEASUREMENT": 3000
  },
  {
    "COMPOUND": "O=C1OC2(CC2)CN1Cc1cncc(-c2ccc(F)c(OC(F)F)c2)c1",
    "COMPARISON_SIGN": "=",
    "MEASUREMENT": 12
  },
  {
    "COMPOUND": "C[C@H]1COC(=O)N1Cc1cc(-c2ccc(F)c(OC(F)F)c2)cnc1C(C)(F)F",
    "COMPARISON_SIGN": "=",
    "MEASUREMENT": 492
  },
  {
    "COMPOUND": "COc1ncc(-c2ccc(F)c(C(F)F)c2)cc1CN1C(=O)OC[C@H]1C",
    "COMPARISON_SIGN": "=",
    "MEASUREMENT": 21
  },
  {
    "COMPOUND": "Cc1cc(-c2cnc(C(F)F)c(CN3CCOC3=O)c2)ccc1F",
    "COMPARISON_SIGN": "=",
    "MEASUREMENT": 204
  },
  {
    "COMPOUND": "CC(C)C1CN(Cc2cncc(-c3ccc(F)c(C(F)F)c3)c2)C(=O)O1 (single isomer, unassigned) [Example 36]",
    "COMPARISON_SIGN": "=",
    "MEASUREMENT": 31
  },
  {
    "COMPOUND": "Cc1ncc(-c2ccc(Cl)c(Cl)c2)cc1CN1CCCOC1=O",
    "COMPARISON_SIGN": "=",
    "MEASUREMENT": 19
  },
  {
    "COMPOUND": "COc1ncc(-c2ccc(F)c(C)c2)cc1CN1CCOC1=O",
    "COMPARISON_SIGN": "=",
    "MEASUREMENT": 18
  },
  {
    "COMPOUND": "C[C@@H]1COC(=O)N1Cc1cc(-c2ccc(F)c(C(F)F)c2)cnc1C(C)(F)F",
    "COMPARISON_SIGN": "=",
    "MEASUREMENT": 180
  },
  {
    "COMPOUND": "[2H]C([2H])(c1cncc(-c2ccc(F)c(OC(F)F)c2)c1)N1CCCOC1=O",
    "COMPARISON_SIGN": "=",
    "MEASUREMENT": 12
  },
  {
    "COMPOUND": "[2H]C([2H])(c1cc(-c2ccc(F)c(C)c2)cnc1C)N1CCCOC1=O",
    "COMPARISON_SIGN": "=",
    "MEASUREMENT": 23
  }
]
